System: Lolium perenne (LOLPE)
Experiment: Post-emergence efficacy, Method A
Assay type: in vivo
Details: Application rate 500 g/Ha; evaluated after 13 days; 100=total damage to plant, 0=no damage to plant
Control of weed species after post-emergence application, LOLPE values for the molecules below.
# print the numeric value only

Form: item Cc1n[n+](CCC(=O)O)ccc1-c1ncccn1.[Cl-] [Compound A133] ; test system Lolium perenne (LOLPE); Control of weed species after post-emergence application, LOLPE: 40

Form: item O=C(O)c1ccnc(-c2cc[n+](CCCS(=O)(=O)[O-])nc2)n1 [Compound A146] ; test system Lolium perenne (LOLPE); Control of weed species after post-emergence application, LOLPE: 50

Form: item N#Cc1cnc(-c2cc[n+](CCS(=O)(=O)O)nc2)nc1 [Compound A25] ; test system Lolium perenne (LOLPE); Control of weed species after post-emergence application, LOLPE: 40

Form: item COc1cc(C)nc(-c2cc[n+](CCS(=O)(=O)O)nc2)n1 [Compound A94] ; test system Lolium perenne (LOLPE); Control of weed species after post-emergence application, LOLPE: 20

Form: item O=C(O)CC[n+]1ccc(-c2ncccn2)cn1.[Cl-] [Compound A26] ; test system Lolium perenne (LOLPE); Control of weed species after post-emergence application, LOLPE: 90

###

Tested on: Ipomoea hederacea (IPOHE)
Assay: Post-emergence efficacy, Method A
Assay type: in vivo
Conditions: Ipomoea hederacea, post-emergence, 312 h, Application rate 500 g/Ha; evaluated after 13 days; 100=total damage to plant, 0=no damage to plant; read-out: Control of weed species after post-emergence application, IPOHE
Would you please tag the item yes (1) when its pest or weed control at 500 g/ha is 20% or above, and no (0) when it is below?

Here are 6 molecules together with their reported answers.
Cc1cc(=O)[nH]c(-c2cc[n+](CCS(=O)(=O)[O-])nc2)n1 ... yes (1)
Cc1cc(-c2cc[n+](CCS(=O)(=O)[O-])nc2)ncn1 ... yes (1)
O=S(=O)([O-])CCC[n+]1ccc(-c2cncc(Cl)n2)cn1 ... yes (1)
O=C(O)CC[n+]1ccc(-c2ccnc(C(F)(F)F)n2)cn1 ... yes (1)
O=S(=O)([O-])CC[n+]1ccc(-c2cnc(C(F)(F)F)cn2)cn1 ... yes (1)
O=S(=O)([O-])CC[n+]1ccc(-c2ncc(F)cn2)cn1 ... yes (1)

Identify whether the reported pest or weed control at 500 g/ha of the following molecule is 20% or greater: O=S(=O)([O-])CCC[n+]1ccc(-c2ccnc(Cl)n2)cn1
yes (1)

Identify whether the reported pest or weed control at 500 g/ha of the following molecule is 20% or greater: Cc1cccnc1-c1cc[n+](CCS(=O)(=O)[O-])nc1
yes (1)

Identify whether the reported pest or weed control at 500 g/ha of the following molecule is 20% or greater: COC(=O)CC[n+]1ccc(-c2ncccn2)cn1 [Compound A54, 2,2,2-trifluoroacetate]
no (0)

Identify whether the reported pest or weed control at 500 g/ha of the following molecule is 20% or greater: Cc1cc(F)cnc1-c1cc[n+](CCC(=O)O)nc1
no (0)

###

Tested on: Ipomoea hederacea (IPOHE)
Assay: Post-emergence efficacy, Method A
Format: in vivo
Settings: Ipomoea hederacea, post-emergence, 312 h, Application rate 500 g/Ha; evaluated after 13 days; 100=total damage to plant, 0=no damage to plant; read-out: Control of weed species after post-emergence application, IPOHE
Procedure: Seeds of a variety of test species were sown in standard soil in pots. […] After 13 days the test was evaluated (100=total damage to plant; 0=no damage to plant). […]
experimentalReadout: pest or weed control at 500 g/ha (%)
Record the value in %, omitting the unit from your answer.

Please review the following examples before continuing.
O=S(=O)([O-])CC[n+]1ccc(-c2ncc(Cl)cc2Cl)cn1 ... 20
COc1cnc(-c2cc[n+](CCCS(=O)(=O)[O-])nc2)cn1 ... 20
CC(C)OC(=O)CC[n+]1ccc(-c2ncccn2)cn1 [Compound A81, 2,2,2-trifluoroacetate] ... 40
O=C(O)CC[n+]1ccc(-c2cncc(C(F)(F)F)n2)cn1 ... 10
Cc1cccc(-c2cc[n+](CCS(=O)(=O)[O-])nc2)n1 ... 20

Next molecule, please.
Kindly note the recorded pest or weed control at 500 g/ha for O=S(=O)([O-])CC[n+]1ccc(-c2ncc(F)cc2F)cn1 , which is 20

###

System: Digitaria sanguinalis (DIGSA)
Assay: Post-emergence efficacy, Method A
Type: in vivo
Conditions: Digitaria sanguinalis, post-emergence, 312 h; Application rate 500 g/Ha; evaluated after 13 days; 100=total damage to plant, 0=no damage to plant; read-out: Control of weed species after post-emergence application, DIGSA
experimentalReadout: pest or weed control at 500 g/ha (%)
Record the value in %, omitting the unit from your answer.

Cc1n[n+](CCS(=O)(=O)[O-])ccc1-c1ncccn1 ... 90
COC(=O)CC[n+]1ccc(-c2ncccn2)cn1 [Compound A54, 2,2,2-trifluoroacetate] ... 100
COC(=O)CC[n+]1ccc(-c2cccnn2)cn1 ... 100

Kindly note the recorded pest or weed control at 500 g/ha for O=S(=O)([O-])CC[n+]1ccc(-c2ncc(F)cc2F)cn1 , which is 30

Kindly note the recorded pest or weed control at 500 g/ha for Cc1cncc(-c2cc[n+](CCS(=O)(=O)[O-])nc2)n1 , which is 100

Kindly note the recorded pest or weed control at 500 g/ha for CNC(=O)c1ccnc(-c2cc[n+](CCC(=O)[O-])nc2)n1 , which is 100

Kindly note the recorded pest or weed control at 500 g/ha for CS(=O)(=O)c1cnc(-c2cc[n+](CCC(=O)[O-])nc2)nc1 , which is 50

Kindly note the recorded pest or weed control at 500 g/ha for COc1ccnc(-c2cc[n+](CCS(=O)(=O)[O-])nc2)n1 , which is 70

###

Tested on: Eleusine indica (ELEIN)
Assay: Post-emergence efficacy, Method A
Type: in vivo
Settings: Eleusine indica, post-emergence, 312 h; Application Rate 500 g/Ha; evaluated after 13 days; Method A; read-out: Control of weed species after post-emergence application, ELEIN (100=total damage to plant; 0=no damage to plant)
experimentalReadout: pest or weed control at 500 g/ha (%)
Record the value in %, omitting the unit from your answer.

Please review the following examples before continuing.
CC(C(=O)OC(C)(C)C)[n+]1ccc(-c2ncccn2)cn1 (stereo not drawn) [Compound A193] ... 30
O=C(O)CC[n+]1ccc(-c2ccc(C(F)(F)F)cn2)cn1 [Compound A200] ... 30

Kindly note the recorded pest or weed control at 500 g/ha for N#Cc1cnc(-c2cc[n+](CCS(=O)(=O)[O-])nc2)cn1 [Compound A191] , which is 30

###

Test system: Lolium perenne (LOLPE)
Assay: Post-emergence efficacy, Method A
Type: in vivo
Conditions: Lolium perenne, post-emergence, 312 h, Application rate 500 g/Ha; evaluated after 13 days; 100=total damage to plant, 0=no damage to plant; read-out: Control of weed species after post-emergence application, LOLPE
# 1 (yes) = pest or weed control at 500 g/ha below 20% (exclusive); 0 (no) = pest or weed control at 500 g/ha at/above 20%

Cc1cc(F)cnc1-c1cc[n+](CCS(=O)(=O)[O-])nc1 [Compound A104] ... 1 (yes)
CC(=O)c1ccnc(-c2cc[n+](CCS(=O)(=O)[O-])nc2)n1 [Compound A49] ... 0 (no)
COc1cc(OC)nc(-c2cc[n+](CCC(=O)[O-])nc2)n1 [Compound A76] ... 0 (no)
O=S(=O)([O-])CC[n+]1ccc(-c2ncccc2F)cn1 [Compound A68] ... 0 (no)
O=S(=O)([O-])CC[n+]1ccc(-c2cnc(C(F)(F)F)cn2)cn1 [Compound A112] ... 0 (no)

Quick check: pest or weed control at 500 g/ha of CCOP(=O)(CC[n+]1ccc(-c2cnccn2)cn1)OCC [Compound A8] under 20%?
1 (yes)

Quick check: pest or weed control at 500 g/ha of O=C(O)CC[n+]1ccc(-c2ncc(C(F)(F)F)cn2)cn1 [Compound A129] under 20%?
0 (no)

###

Tested on: Euphorbia heterophylla (EPHHL)
Experiment: Post-emergence efficacy, Method A
Format: in vivo
Details: Euphorbia heterophylla, post-emergence, 312 h; Application rate 500 g/Ha; evaluated after 13 days; 100=total damage to plant, 0=no damage to plant; read-out: Control of weed species after post-emergence application, EPHHL
experimentalReadout: pest or weed control at 500 g/ha (%)
Record the value in %, omitting the unit from your answer.

Please review the following examples before continuing.
O=S(=O)([O-])CC[n+]1ccc(-c2cccc(C(F)(F)F)n2)cn1 [Compound A74] ... 60
COc1cc(C)nc(-c2cc[n+](CCC(=O)[O-])nc2)n1 [Compound A105] ... 50
CCOC(=O)CC[n+]1ccc(-c2ncccn2)cn1 [Compound A82] ... 40
O=S(=O)([O-])CC[n+]1ccc(-c2ncc(F)cc2F)cn1 [Compound A70] ... 50
CCOP(=O)(CC[n+]1ccc(-c2ncccn2)cn1)OCC [Compound A124] ... 0

Kindly note the recorded pest or weed control at 500 g/ha for N#Cc1ccnc(-c2cc[n+](CCCS(=O)(=O)[O-])nc2)n1 [Compound A147] , which is 70

Kindly note the recorded pest or weed control at 500 g/ha for CS(=O)(=O)c1cnc(-c2cc[n+](CCS(=O)(=O)[O-])nc2)nc1 [Compound A15] , which is 20
